# Test system: OVCAR-4 ovarian
# Experimental Details: NCI-60 one-dose screen, 48 h (100 = growth as untreated, 0 = no growth, -100 = all killed)
# Condition Description: 10 µM unless noted
About 83,000 compounds went through this panel and 20% of them were active in at least one assay; those are over-represented in the sample as a whole.
Items are presented alongside their recorded growth.

Compound	Test Target	Unit Descriptor	growth
CCNC(=O)Oc1ccc(/C(=C(\C)c2ccccc2)c2ccc(OCCCN(C)C)cc2)cc1	OVCAR-4 ovarian	%	84.4
Cc1cc(Cl)nc(N(CCNc2ccnc3cc(Cl)ccc23)Cc2ccccn2)n1	OVCAR-4 ovarian	%	35
COc1ccc2[nH]c(=O)c(CN3CCN(c4nccc(-c5ccc(Cl)cc5)n4)CC3)cc2c1	OVCAR-4 ovarian	%	71.4
O=S(=O)(NCCNc1nccc(-c2c(-c3cccc(F)c3)nc3sccn23)n1)c1ccccc1	OVCAR-4 ovarian	%	40
O=C(c1nc2ccccc2[nH]1)C1C(c2ccc(Cl)cc2)C2CC3CCCC[C@H]3N2[C@@]12C(=O)Nc1cc(Cl)ccc12 (some centres not stated)	OVCAR-4 ovarian	%	24.4
COc1ccc(-c2nc([C@@H](C)Sc3nc(N)cc(N)n3)c(C)s2)cc1OCCN1CCOCC1	OVCAR-4 ovarian	%	106
CC(C)(C)[Si](C)(C)OC1[C@@H](O[Si](C)(C)C(C)(C)C)[C@@H](CNC(=O)NC(=O)CCl)O[C@H]1n1cnc2c(NC(=O)Nc3ccccc3)ncnc21 (some centres not stated)	OVCAR-4 ovarian	%	-42.3
CN1C(=O)NC(c2ccc3c(c2)OCO3)C=C1c1ccccc1 (configuration not stated)	OVCAR-4 ovarian	%	97.5
CCOC(=O)c1ccc2c(c1)ncn2-c1ccc(NC(=O)Nc2cccc(C)c2)cc1	OVCAR-4 ovarian	%	75.7
NC(=O)CSSCC(N)=O	OVCAR-4 ovarian	%	111
COc1cc(/C=N/O)nc(-c2ccccn2)c1	OVCAR-4 ovarian	%	22.2
CCc1c(Cl)nc(N)nc1Nc1ccc(C)c(C)c1	OVCAR-4 ovarian	%	98
Cn1c(-c2c(N)n(CCCN3CCOCC3)c3nc(C#N)c(C#N)nc23)nc2ccccc21	OVCAR-4 ovarian	%	73.7
N#CC1C(C#N)C2c3ccccc3C=CN2C1C(=O)c1ccc(Br)cc1 (configuration not stated)	OVCAR-4 ovarian	%	54.3
COC(=O)C1=C(C(=O)ON)[C@@H]2C=C[C@@]1([C@@H](Cc1ccccc1)Nc1ccccc1)O2	OVCAR-4 ovarian	%	79.9
Cc1cnc(C(=O)Nc2nc3ccc(S(=O)(=O)Nc4ccc(C(C)(C)C)cc4)cc3[nH]2)cn1	OVCAR-4 ovarian	%	46.5
NS(=O)(=O)c1ccc(CCN2C(=O)c3cc(Cl)c(Cl)cc3C2=O)cc1	OVCAR-4 ovarian	%	104
COc1ccc(/C=C2\COc3ccc(-c4ccccc4)cc3C2=O)c(OC)c1	OVCAR-4 ovarian	%	64.7
COc1ccc(C(=O)c2cc(OC)c(OC)c(OC)c2)cc1O	OVCAR-4 ovarian	%	30.6
N#CC(C(=O)/C(=N/NC(=O)c1ccccc1O)C(C#N)c1ccccc1)c1ccccc1 (configuration not stated)	OVCAR-4 ovarian	%	58.8
O=C1Nc2ccccc2/C1=C\c1c(-c2ccccc2)nc2ccccn12	OVCAR-4 ovarian	%	78.8
COc1cc2nc(-c3ccc(Cl)cc3)cc(OCCCN3CCC(O)CC3)c2cc1OC	OVCAR-4 ovarian	%	68.7
O=C1/C=C/[C@@H](O)[C@@H]2C[C@@H](O)C[C@H]2/C=C/CCC[C@H](CCc2ccc3ncccc3c2)O1	OVCAR-4 ovarian	%	14.3
CCCCC[n+]1ccc(SCC(=O)N(C)c2ccc(Oc3ccccc3)cc2)c2ccccc21	OVCAR-4 ovarian	%	92.6
Cc1cc2c(c(C)c1Cl)C(=O)/C(=C/c1ccc(O)c(O)c1)O2	OVCAR-4 ovarian	%	96.3
COc1cc2cc(CN3CCN(c4nccc(-c5ccc6ccccc6c5)n4)CC3)c(=O)[nH]c2cc1OC	OVCAR-4 ovarian	%	53.4
C[C@@H](Nc1ncnc2ccc(-c3cnc(N)nc3)cc12)c1ccc(F)cc1	OVCAR-4 ovarian	%	74.3
COc1cc2nc(-c3ccc(C(F)(F)F)cc3)cc(OCCN3CCCCC3)c2cc1OC	OVCAR-4 ovarian	%	81.8
C=C1C(=O)O[C@H]2[C@H]1CC/C(C(=O)NCCCCCNC(=O)/C1=C/CC[C@@]3(C)O[C@H]3[C@H]3OC(=O)C(=C)[C@@H]3CC1)=C\CC[C@@]1(C)O[C@@H]21	OVCAR-4 ovarian	%	116
CCCCCCCC(=O)OCC/C=C/C1OC1C1OC(=O)/C=C\C=C\C(=O)N(C(C)=O)C(=O)/C=C(/C)CCC2OC2C1OC(=O)NC(C)=O (configuration not stated)	OVCAR-4 ovarian	%	97.2
Cc1ccc(S(=O)(=O)Nn2c3c(cc(-c4nc5ccccc5s4)c2=O)CCCCCC3)cc1	OVCAR-4 ovarian	%	98.5
Cc1nc2ccc(Cl)cn2c1-c1nnc(SCc2ccc([N+](=O)[O-])cc2)o1	OVCAR-4 ovarian	%	32.5
COc1ccc(/C=C/c2nc(Nc3cccc(NC(C)=O)c3)c3ccccc3n2)cc1	OVCAR-4 ovarian	%	104
COc1ccc(C/C(C)=C(/c2ccc(OCCCN(C)C)cc2)c2ccc(OC(C)=O)cc2)cc1	OVCAR-4 ovarian	%	79.6
COc1cc(/C=C\c2cc(OC)c(OC)c(OC)c2)cc(N)c1OC	OVCAR-4 ovarian	%	128
c1ccc(-c2c(-c3ccccc3)[n+](Cc3ccc4ccccc4c3)c(-c3cccc4ccccc34)n2Cc2ccc3ccccc3c2)cc1	OVCAR-4 ovarian	%	-81
COC(=O)N[C@H]1CCc2c(Cl)c(OC)c(OC)c(OC)c2-c2ccc(SC)c(=O)cc21	OVCAR-4 ovarian	%	39.5

Origin of the recorded values: PubChem BioAssay (NCI)
